Quick reference: Stability of Plant-Derived Cannabinoid Compounds in AB Red of the listed items.
- Method summary: Stability of cannabinoid compounds and Vitamin E components in Beverage 2 (AB Red) by LCMSMS
- Assay type: physicochemical
- Cond: stored at 21-25° C., 510 days
Reply with just the number (in µg/mL).

Here are 2 compounds together with their reported answers.
CCCCCc1cc(O)c2c(c1)OC(C)(C)[C@@H]1CCC(C)=C[C@@H]21 [D9 THC, delta-9-tetrahydrocannabinol, reference compound] : 12.3
CCCCCc1cc(O)c2c(c1)OC1(C)CCC3C1C2C3(C)C (stereo not drawn) : 0.47

Would you mind telling me what Stability of Plant-Derived Cannabinoid Compounds in AB Red value was observed for "C=C(C)[C@@H]1CCC(C)=C[C@H]1c1c(O)cc(CCC)cc1O" ?
0.19
